target: Human Met (Homo sapiens); construct: Human MET (residues 956-1390); assay: Human Met kinase assay (33P radiometric / HTRF KinEase); conditions: protocols of Examples D-1 and/or D-2; read-out: c-Met IC50
pIC50: −log10 of the molar value.
Parameter pIC50: see the listing below.

Input: Requested read-out: pIC50. Entry: COc1cc2nccc(Oc3ccc(NC(=O)c4cnc(C)c(C5=CCCCC5)c4O)cc3F)c2nc1OC
Output: ≥ 7.00

Input: Bench note: what pIC50 did C=C(C)c1c(C)n(C)c(C)c(C(=O)Nc2ccc(Oc3ccnc4cc(OC)c(OC)nc34)c(F)c2)c1=O show?
Output: < 6.52

Input: Query: pIC50; subject: COCCOc1cnc2c(Oc3ccc(NC(=O)c4c(C)n(C)c(C)c(C5=CCCCC5)c4=O)cc3F)ccnc2c1
Output: ≥ 7.00

Input: May I ask what pIC50 has been recorded for COc1cc2nccc(Oc3ccc(NC(=O)c4c(C)nc(C)c(C#N)c4O)cc3F)c2nc1OC ?
Output: < 6.52

Input: Record request: pIC50 value, item COc1cc2nccc(Oc3ccc(NC(=O)c4c(C)n(C)c(C)c(N5CCCC5)c4=O)cc3F)c2nc1OC
Output: ≥ 7.00

###

These records show pIC50 for Human Axl (Homo sapiens).
pIC50: −log10 of the molar value.

Consider the following illustrative entries.
COCCOc1cc2nccc(Oc3ccc(NC(=O)c4c(C)n(C)c(C)c(/C=C/C(C)(C)C)c4=O)cc3F)c2nc1OC [Compound 45] : ≥ 7.00
COc1cc2nccc(Oc3ccc(NC(=O)c4c(C)nc(C)c(C(C)C)c4O)cc3F)c2nc1OC [Compound 31] : ≥ 7.00
COc1cc2nccc(Oc3ccc(NC(=O)c4cnc(C)c(C5=CCCCC5)c4O)cc3F)c2cc1OC [Compound 23] : ≥ 7.00

Input: Returns the measured pIC50 for the input compound. Input: COc1cc2nccc(Oc3ccc(NC(=O)c4c(C)nc(C)c(C(=O)NC(C)C)c4O)cc3F)c2nc1OC [Compound 94]
Output: ≥ 7.00

Input: Bench note: what pIC50 did COCCOc1cc2nccc(Oc3ccc(NC(=O)c4cnc(C)c(C5=CCOCC5)c4O)cc3F)c2nc1OC [Compound 35] show?
Output: ≥ 7.00

Input: If you can, please state the reported pIC50 value of COc1cnc2c(Oc3ccc(NC(=O)c4c(C)n(C)c(C)c(C#N)c4=O)cc3F)ccnc2c1 [Compound 81] .
Output: < 6.52

Input: Quick one: pIC50 for CNC(=O)c1c(C)nc(C)c(C(=O)Nc2ccc(Oc3ccnc4cc(OC)c(OC)nc34)c(F)c2)c1O [Compound 97] ?
Output: ≥ 7.00

Input: GET /values?readout=pIC50&item= COc1cc2nccc(Oc3ccc(NC(=O)c4c(C)n(C)c(C)c(C(=O)NC5CC5)c4=O)cc3F)c2nc1OC [Compound 96]
Output: < 6.52

Input: Suppose we examine the compound COc1cc2nccc(Oc3ccc(NC(=O)c4c(C)ccn(C(C)C)c4=O)cc3F)c2nc1OC [Compound 38] ; what pIC50 value has been reported?
Output: 6.52 to 7.00

Input: State the recorded pIC50 for this entry: COCCOc1cc2nccc(Oc3ccc(NC(=O)c4cnc(C)c(/C=C/C5CC5)c4O)cc3F)c2nc1OC [Compound 37]
Output: ≥ 7.00

Input: // query pIC50 value for entry COCCOc1cc2nccc(Oc3ccc(NC(=O)c4cnc(C)c(/C=C/C(C)(C)C)c4O)cc3F)c2nc1OC [Compound 40]
Output: ≥ 7.00

Input: Need pIC50, item COCCOc1cc2nccc(Oc3ccc(NC(=O)c4c(C)n(C)c(C)c(C5=CCCC5)c4=O)cc3F)c2nc1OC [Compound 42]
Output: ≥ 7.00

Input: # input compound: COc1cc2nccc(Oc3ccc(NC(=O)c4c5n(cc(C6=CCOCC6)c4=O)CCOC5)cc3)c2nc1OC [Compound G1-8] ; wanted: its pIC50
Output: ≥ 7.00

Input: I have this compound here, COc1cc2nccc(Oc3ccc(NC(=O)c4c5n(c(C)c(C6=CCOCC6)c4=O)CCOC5)cc3)c2nc1OC [Compound 73] , and I need its recorded pIC50.
Output: ≥ 7.00

Input: Requested field: pIC50. Item: COc1cc2nccc(Oc3ccc(NC(=O)c4c(C)n(C)c(C)c(C#N)c4=O)cc3)c2nc1OC [Compound 82]
Output: < 6.52

###

target: Human Met (Homo sapiens, UniProt P08581); construct: Human MET (residues 956-1390); assay: Human Met kinase assay (33P radiometric / HTRF KinEase); conditions: protocols of Examples D-1 and/or D-2; read-out: c-Met IC50
Sequence (P08581 974-1390 limits assumed): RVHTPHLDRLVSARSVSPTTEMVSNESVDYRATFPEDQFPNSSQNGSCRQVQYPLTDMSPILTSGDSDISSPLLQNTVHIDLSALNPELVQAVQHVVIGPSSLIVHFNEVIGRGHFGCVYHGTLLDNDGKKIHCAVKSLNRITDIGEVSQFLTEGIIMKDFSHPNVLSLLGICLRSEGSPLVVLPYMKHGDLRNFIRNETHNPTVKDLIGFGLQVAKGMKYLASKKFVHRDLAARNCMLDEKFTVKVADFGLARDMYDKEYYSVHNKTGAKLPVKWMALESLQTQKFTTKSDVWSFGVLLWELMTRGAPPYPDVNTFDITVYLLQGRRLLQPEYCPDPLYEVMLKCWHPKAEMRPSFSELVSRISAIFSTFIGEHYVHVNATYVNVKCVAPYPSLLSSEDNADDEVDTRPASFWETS
Structures can show the parent of a compound that is named as a salt.
OUTCOME MEASURE: IC50

COc1cc2nccc(Oc3ccc(NC(=O)c4c(C)n(C)c(C)c(C5CC5)c4=O)cc3)c2nc1OC [Compound 48] : > 300 nM

Input: Quick check: IC50 of COc1cc2nccc(Oc3ccc(NC(=O)c4cnc(C)c(C5=CCCC5)c4O)cc3F)c2nc1OC [Compound G1-2, hydrochloride] ?
Output: ≤ 100 nM

Input: Please report the recorded IC50 for COc1cc2nccc(Oc3cc(F)c(NC(=O)c4c(C)nc(C)c(OC)c4O)cc3F)c2nc1OC [Compound 68] .
Output: > 300 nM

Input: I have this molecule here, COc1cc2nccc(Oc3ccc(NC(=O)c4cnc(C)c(C5=CCOCC5)c4O)cc3F)c2cc1OC [Compound 19] , and I need its recorded IC50.
Output: ≤ 100 nM

Input: Given the entry COc1cc2nccc(Oc3ccc(NC(=O)c4c5n(cc(C6=CCCCC6)c4=O)CCOC5)cc3F)c2nc1OC [Compound G1-4] , report its measured IC50.
Output: ≤ 100 nM

Input: Would you kindly share the measured IC50 for COc1cc2nccc(Oc3ccc(NC(=O)c4c(C)nc(C)c(C5=CCCCC5)c4O)cc3F)c2nc1OC [Compound 2-3] ?
Output: ≤ 100 nM

Input: GET /values?readout=IC50&item= COc1cnc2c(Oc3ccc(NC(=O)c4c(C)n(C)c(C)c(C#N)c4=O)cc3F)ccnc2c1 [Compound 81]
Output: > 300 nM

Input: Which IC50 is listed for COc1cc2nccc(Oc3ccc(NC(=O)c4cn(C)c(C)c(C5=CCCC5)c4=O)cc3F)c2nc1OC [Compound 1] ?
Output: ≤ 100 nM

Input: Look up IC50: COc1cc2nccc(Oc3ccc(NC(=O)c4c(C)c(Br)c(C)n(C5CCCC5)c4=O)cc3F)c2nc1OC [Compound 22]
Output: ≤ 100 nM

Input: Name the recorded IC50 for COc1cc2nccc(Oc3ccc(NC(=O)c4c5n(cc(C6=CCOCC6)c4=O)CCOC5)cc3F)c2nc1OC [Compound G1-7] .
Output: ≤ 100 nM

Input: IC50 lookup needed for C=C(C)n1c(C)cc(C)c(C(=O)Nc2ccc(Oc3ccnc4cc(OC)c(OC)nc34)c(F)c2)c1=O [Compound 20] , thanks.
Output: ≤ 100 nM

###

molecular target: Human Mer (Homo sapiens, UniProt Q12866); construct: Human Mer (residues R557-E882 with H628Q and R794A, 0.7 nM); test: Human Mer kinase assay (33P radiometric / HTRF KinEase); settings: protocols of Examples C-1 and/or C-2
Sequence (Q12866 557-882 limits assumed): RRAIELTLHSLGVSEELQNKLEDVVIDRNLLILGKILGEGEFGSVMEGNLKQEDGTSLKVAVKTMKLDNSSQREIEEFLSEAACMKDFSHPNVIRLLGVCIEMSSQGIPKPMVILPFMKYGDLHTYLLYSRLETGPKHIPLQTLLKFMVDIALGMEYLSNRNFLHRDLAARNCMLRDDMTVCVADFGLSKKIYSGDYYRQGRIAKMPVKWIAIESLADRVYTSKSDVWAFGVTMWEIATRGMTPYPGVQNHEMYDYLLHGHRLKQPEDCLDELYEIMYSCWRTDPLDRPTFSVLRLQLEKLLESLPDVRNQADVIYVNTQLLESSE
Each item that follows carries a reported IC50.

Example molecules with recorded IC50:
COc1cc2nccc(Oc3ccc(NC(=O)c4cnc(C)c(C5=CCOCC5)c4O)cc3)c2cc1OC [Compound 17] : ≤ 100 nM
COc1cc2nccc(Oc3ccc(NC(=O)c4cnc(C)c(C5=CCCCC5)c4O)cc3F)c2nc1OC [Compound G1-3] : ≤ 100 nM

Input: Looking for the measured IC50 of COc1cc2nccc(Oc3cc(F)c(NC(=O)c4c(C)nc(C)c(C(C)C)c4O)cc3F)c2nc1OC [Compound 10] , can you help?
Output: ≤ 100 nM

Input: Returns the measured IC50 for the input molecule. Input: COCCOc1cc2nccc(Oc3cc(F)c(NC(=O)c4c(C)n(C)c(C)c(C#N)c4=O)cc3F)c2nc1OC [Compound 83]
Output: > 300 nM

Input: Tell me the measured IC50 of COCCOc1cc2ncnc(Oc3ccc(NC(=O)c4c(C)nc(C)c(OC)c4O)cc3F)c2nc1OC [Compound 72] , please.
Output: > 300 nM

###

pIC50: −log10 of the molar value. Structures can show the parent of a compound that is named as a salt.
Endpoint: pIC50. System: Human KDR (Homo sapiens). Items follow.
Sequence (P35968 790-1356): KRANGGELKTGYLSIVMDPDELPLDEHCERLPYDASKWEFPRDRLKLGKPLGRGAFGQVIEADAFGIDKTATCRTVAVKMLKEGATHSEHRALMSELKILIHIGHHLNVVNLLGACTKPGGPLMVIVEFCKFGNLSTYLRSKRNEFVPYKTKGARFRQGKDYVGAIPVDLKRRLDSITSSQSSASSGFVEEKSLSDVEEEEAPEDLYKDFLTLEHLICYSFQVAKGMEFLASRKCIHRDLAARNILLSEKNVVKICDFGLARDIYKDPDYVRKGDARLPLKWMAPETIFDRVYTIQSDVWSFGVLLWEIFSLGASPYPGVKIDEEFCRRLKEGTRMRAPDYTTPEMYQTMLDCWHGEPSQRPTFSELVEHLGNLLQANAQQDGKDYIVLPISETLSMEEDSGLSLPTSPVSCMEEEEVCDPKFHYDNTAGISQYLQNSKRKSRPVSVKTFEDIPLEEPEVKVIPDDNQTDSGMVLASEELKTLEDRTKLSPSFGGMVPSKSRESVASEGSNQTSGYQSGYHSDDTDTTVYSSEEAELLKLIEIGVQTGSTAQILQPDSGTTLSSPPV

Solved cases (10 shown):
COc1cc2nccc(Oc3ccc(NC(=O)c4cnc(C)c(/C=C/CC(C)C)c4O)cc3F)c2nc1OC : ≥ 7.00
COc1cc2nccc(Oc3ccc(NC(=O)c4c5n(c(C)c(C6=CCOCC6)c4=O)CCOC5)cc3)c2nc1OC : < 6.52
COc1cc2nccc(Oc3ccc(NC(=O)c4c(C)n(C)c(C)c(C(=O)O)c4=O)cc3F)c2nc1OC : 6.52 to 7.00
COc1cc2nccc(Oc3ccc(NC(=O)c4c(C)nc(C)c(C(N)=O)c4O)cc3F)c2nc1OC : < 6.52
COCCOc1cnc2c(Oc3ccc(NC(=O)c4c(C)n(C)c(C)c(C5=CCCC5)c4=O)cc3F)ccnc2c1 : 6.52 to 7.00
COc1cnc2c(Oc3ccc(NC(=O)c4c(C)n(C)c(C)c(C#N)c4=O)cc3F)ccnc2c1 : < 6.52
COc1cc2nccc(Oc3ccc(NC(=O)c4c(C)n(C)c(C)c(N5CCOCC5)c4=O)cc3F)c2nc1OC : < 6.52
COc1cc2nccc(Oc3ccc(NC(=O)c4c5n(cc(C6=CCCCC6)c4=O)CCOC5)cc3F)c2nc1OC : ≥ 7.00
COc1cc2nccc(Oc3ccc(NC(=O)c4c(C)nc(C)c(C5=CCCC5)c4O)cc3F)c2nc1OC [Compound 1-2, hydrochloride] : ≥ 7.00
COc1cc2nccc(Oc3ccc(NC(=O)c4c(C)n(C)c(C)c(C#N)c4=O)cc3F)c2nc1OC : < 6.52

Input: Looking for the measured pIC50 of COc1cc2nccc(Oc3ccc(NC(=O)c4c(C)nc(C)c(C(=O)NC(C)C)c4O)cc3F)c2nc1OC , can you help?
Output: ≥ 7.00

Input: Which pIC50 reading was recorded for the molecule COCCOc1cc2nccc(Oc3ccc(NC(=O)c4cnc(C)c(/C=C/C5CC5)c4O)cc3F)c2nc1OC ?
Output: ≥ 7.00

Input: Quick one: pIC50 of COc1cc2nccc(Oc3ccc(NC(=O)c4cn(C)c(C)c(C5CCCC5)c4=O)cc3F)c2nc1OC ?
Output: ≥ 7.00

Input: Using the record for COCCOc1cc2nccc(Oc3ccc(NC(=O)c4c(C)nc(C)c(OC)c4O)cc3F)c2nc1OC , report its pIC50.
Output: ≥ 7.00

Input: What value of measured pIC50 is listed for COc1cnc2c(Oc3ccc(NC(=O)c4c(C)nc(C)c(C(N)=O)c4O)cc3F)ccnc2c1 ?
Output: < 6.52

Input: If you can, please state the reported pIC50 value of COc1cc2nccc(Oc3ccc(NC(=O)c4cnc(C)c(C5=CCOCC5)c4O)cc3F)c2cc1OC .
Output: ≥ 7.00

Input: Tell me the measured pIC50 of COc1cc2nccc(Oc3ccc(NC(=O)c4c(C)n(C)c(C)c(C5=CCOCC5)c4=O)cc3F)c2nc1OC , please.
Output: < 6.52

Input: # query: pIC50 of entry COc1cc2nccc(Oc3cc(F)c(NC(=O)c4c(C)nc(C)c(OC)c4O)cc3F)c2nc1OC
Output: ≥ 7.00

Input: Requested field: pIC50. Item: COCCOc1cc2nccc(Oc3ccc(NC(=O)c4cnc(C)c(C5=CCOCC5)c4O)cc3F)c2nc1OC
Output: ≥ 7.00

Input: // returns reported pIC50 for input COc1cc2nccc(Oc3ccc(NC(=O)c4c(C)cc(C)n(C5=CCCC5)c4=O)cc3F)c2nc1OC
Output: ≥ 7.00

Input: pIC50 lookup needed for COc1cc2nccc(Oc3ccc(NC(=O)c4cnc(C)c(C5=CCCC5)c4O)cc3F)c2cc1OC , thanks.
Output: ≥ 7.00

Input: pIC50 for COc1cnc2c(Oc3ccc(NC(=O)c4cnc(C)c(C5=CCOCC5)c4O)cc3)ccnc2c1 ?
Output: ≥ 7.00

Input: What value of measured pIC50 is listed for COc1cc2nccc(Oc3ccc(NC(=O)c4c(C)nc(C)c(C(C)C)c4O)cc3F)c2nc1OC ?
Output: ≥ 7.00

Input: Using the record for CCc1c(Br)c(=O)c(C(=O)Nc2ccc(Oc3ccnc4cc(OCCOC)c(OC)nc34)cc2)cn1C , report its pIC50.
Output: < 6.52

Input: Give the measured pIC50 of COc1cc2nccc(Oc3ccc(NC(=O)c4c(C)nc(C)c(C(=O)NC5CC5)c4O)cc3F)c2nc1OC .
Output: ≥ 7.00

Input: Which measured pIC50 value corresponds to COCCOc1cc2nccc(Oc3cc(F)c(NC(=O)c4c(C)nc(C)c(C(N)=O)c4O)cc3F)c2nc1OC ?
Output: < 6.52

Input: Please look up its pIC50: COc1cc2nccc(Oc3ccc(NC(=O)c4c(C)n(C)c(C)c(N5CCCC5)c4=O)cc3F)c2nc1OC
Output: ≥ 7.00

Input: Quick one: pIC50 of C=C(C)c1c(C)nc(C)c(C(=O)Nc2ccc(Oc3ccnc4cc(OC)c(OC)nc34)c(F)c2)c1O ?
Output: ≥ 7.00

Input: Suppose we examine the molecule COc1cc2nccc(Oc3cc(F)c(NC(=O)c4c(C)n(C)c(C)c(C5CC5)c4=O)cc3F)c2nc1OC ; what pIC50 value has been reported?
Output: < 6.52

Input: Name the reported pIC50 value associated with the molecule COc1cnc2c(Oc3ccc(NC(=O)c4c(C)nc(C)c(OC)c4O)cc3)ccnc2c1
Output: 6.52 to 7.00
